# credit: patent US20180193454A1

Molecular target: T1, human CD154 (human, UniProt P29965 113-261, limits assumed)
T1 construct: also called CD154 antigen; CD40L
T1 sequence (looked up): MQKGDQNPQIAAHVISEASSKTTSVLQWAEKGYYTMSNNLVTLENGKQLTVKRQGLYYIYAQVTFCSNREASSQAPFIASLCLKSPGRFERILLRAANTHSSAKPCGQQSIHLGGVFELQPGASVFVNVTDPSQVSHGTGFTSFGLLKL
Experiment: SPR, Biacore 3000, 25 C; antibody immobilized, CD154 antigen flowed over; average n = 6
Entries annotated with measured kon
Field format: number, assumed M⁻¹ s⁻¹, no unit text.

Known results for binders:
- Binder: "variant 24, humanized anti-human CD154 antibody derived from IDEC-131 (antibody, V domains shown) VH: EVQLQESGPGLVKPSETLSLTCTVSGDSITNGFWIWIRKPPGNKLEYMGYISYSGSTYYNPSLKSRISISRDTSKNQFSLKLSSVTAADTGVYYCAYRSYGRTPYYFDYWGQGTTLTVSS VL: DIVMTQSPSFLSASVGDRVTITCKAPQNLGTAVAWYQQKPGKSPKLLIYSASNRYTGVPDRFSGSGSGTDFTLTISSLQPEDFADYFCQQYDDYPYTFGGGTKLEIK"
  kon, M⁻¹ s⁻¹: "3.7e+06"
- Binder: "variant 28, humanized anti-human CD154 antibody derived from IDEC-131 (antibody, V domains shown) VH: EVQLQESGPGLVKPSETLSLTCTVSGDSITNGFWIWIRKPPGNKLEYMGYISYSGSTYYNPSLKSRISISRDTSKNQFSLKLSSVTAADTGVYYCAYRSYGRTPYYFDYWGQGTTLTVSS VL: DIVMTQSPSFLSASVGDRVTITCKAPSSLGHAVAWYQQKPGKSPKLLIYSASNRYTGVPDRFSGSGSGTDFTLTISSLQPEDFADYFCQQYDDYPYTFGGGTKLEIK"
  kon, M⁻¹ s⁻¹: "3.65e+06"
- Binder: "INX021 (variant 21), humanized anti-human CD154 IgG1 antibody derived from IDEC-131 (antibody, V domains shown) VH: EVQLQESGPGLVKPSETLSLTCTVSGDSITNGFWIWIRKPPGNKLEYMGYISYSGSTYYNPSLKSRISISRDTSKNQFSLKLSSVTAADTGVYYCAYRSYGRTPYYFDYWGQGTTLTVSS VL: DIVMTQSPSFLSASVGDRVTITCKASSNLGHAVAWYQQKPGKSPKLLIYSASNRYTGVPDRFSGSGSGTDFTLTISSLQPEDFADYFCQQYDDYPYTFGGGTKLEIK"
  kon, M⁻¹ s⁻¹: "4.42e+06"
- Binder: "variant 29, humanized anti-human CD154 antibody derived from IDEC-131 (antibody, V domains shown) VH: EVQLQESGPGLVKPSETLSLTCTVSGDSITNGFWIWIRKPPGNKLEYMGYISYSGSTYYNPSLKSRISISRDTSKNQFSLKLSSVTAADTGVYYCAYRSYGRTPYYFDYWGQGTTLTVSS VL: DIVMTQSPSFLSASVGDRVTITCKGNQPLGHAVAWYQQKPGKSPKLLIYSASNRYTGVPDRFSGSGSGTDFTLTISSLQPEDFADYFCQQYDDYPYTFGGGTKLEIK"
  kon, M⁻¹ s⁻¹: "3.86e+06"
- Binder: "variant 27, humanized anti-human CD154 antibody derived from IDEC-131 (antibody, V domains shown) VH: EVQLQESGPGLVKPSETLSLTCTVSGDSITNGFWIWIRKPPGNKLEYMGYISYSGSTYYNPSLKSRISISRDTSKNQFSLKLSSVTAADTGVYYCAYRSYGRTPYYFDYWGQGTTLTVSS VL: DIVMTQSPSFLSASVGDRVTITCKASQHLGHAVAWYQQKPGKSPKLLIYSASNRYTGVPDRFSGSGSGTDFTLTISSLQPEDFADYFCQQYDDYPYTFGGGTKLEIK"
  kon, M⁻¹ s⁻¹: "3.58e+06"

Please fill in: kon reported for variant 25, humanized anti-human CD154 antibody derived from IDEC-131 (antibody, V domains shown) VH: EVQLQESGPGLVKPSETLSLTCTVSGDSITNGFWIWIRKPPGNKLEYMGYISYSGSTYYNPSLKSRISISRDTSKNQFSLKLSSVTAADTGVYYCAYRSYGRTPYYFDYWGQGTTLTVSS VL: DIVMTQSPSFLSASVGDRVTITCKASQNLNHAVAWYQQKPGKSPKLLIYSASNRYTGVPDRFSGSGSGTDFTLTISSLQPEDFADYFCQQYDDYPYTFGGGTKLEIK = 4.11e+06

Please fill in: kon reported for variant 30, humanized anti-human CD154 antibody derived from IDEC-131 (antibody, V domains shown) VH: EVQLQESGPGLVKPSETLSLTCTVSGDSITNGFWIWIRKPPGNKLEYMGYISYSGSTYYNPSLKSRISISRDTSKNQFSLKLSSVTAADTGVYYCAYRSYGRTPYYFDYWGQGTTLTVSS VL: DIVMTQSPSFLSASVGDRVTITCKAGHSLGTAVAWYQQKPGKSPKLLIYSASNRYTGVPDRFSGSGSGTDFTLTISSLQPEDFADYFCQQYDDYPYTFGGGTKLEIK = 4.24e+06
